B1: ETS1 (parent)
chain: FSEPSFITESYQTLHPISSEELLS

- Variants of: B1
- Test Method Notes: protein stability index of a GFP-peptide fusion (GPS, HEK-293T) (PSI 1-6); higher = more stable;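 note: lentivirally expressed fusions sorted by FACS into six bins by GFP to DsRed ratio, PSI derived from sequencing read proportions per bin multiplied by bin number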
- Condition Context: c terminus: a fixed tail appended
Entries annotated with measured protein stability index
No unit in the answer, please; the number alone is enough.

Known protein stability index results, listed for orientation:
Item Sequence	protein stability index
FSECSFITESYQTLHPISSEELLS [P4C]	2.2
FSEPSFITESYQTLHPISSSELLS [E20S]	2.11
FSEPSFITKSYQTLHPISSEELLS [E9K]	1.97
FSEPSVITESYQTLHPISSEELLS [F6V]	3.23
LSEPSFITESYQTLHPISSEELLS [F1L]	4.45

Query string: What value of measured protein stability index is listed for FTEPSFITESYQTLHPISSEELLS [S2T] ?
Result string: 1.95

Query string: Which measured protein stability index value corresponds to FSEPSFITESYQTLHPISSEEKLS [L22K] ?
Result string: 2.55

Query string: Return reported protein stability index; argument: FSEPSFITESYQTLHPISSEEQLS [L22Q]
Result string: 2.19

Query string: What value of protein stability index has been reported for the following variant? FSEPSRITESYQTLHPISSEELLS [F6R]
Result string: 4.13

Query string: Find the recorded protein stability index belonging to FSEPSFITSSYQTLHPISSEELLS [E9S] and report it.
Result string: 2.25

Query string: Quick one: protein stability index of FSEPSFITESYQILHPISSEELLS [T13I] ?
Result string: 1.93

Query string: Entry FSEPSFITESYQTLFPISSEELLS [H15F] has what protein stability index?
Result string: 1.95

Query string: Field request: protein stability index | item: FSEPSFITESYVTLHPISSEELLS [Q12V]
Result string: 1.62

Query string: State the recorded protein stability index for this entry: FSEPSFITESYQTLGPISSEELLS [H15G]
Result string: 1.75

Query string: I have this variant here, FSEPSFITESYQTLHPILSEELLS [S18L] , and I need its recorded protein stability index.
Result string: 1.99

Query string: What value of protein stability index has been reported for the following variant? FSEPSFITESKQTLHPISSEELLS [Y11K]
Result string: 2.81
